Listed here: items and their measured log10 of IC50.
Test system: NIH3T3 (mouse embryonic fibroblast)
PROCEDURE_TEXT: Basal cytotoxicity test, Neutral Red Uptake (NRU) assay
RUN_CONDITIONS: Mus musculus, NIH3T3, 24 h, read-out: NIH3T3 IC50 (NR), Table 1; 24 h exposure
READOUT: log10 of IC50 (log10 of the value in µg/mL)

{"COMPOUND": "CCCCCCCCCCCCOC(=O)C1=C(C[n+]2ccccc2)NC(C[n+]2ccccc2)=C(C(=O)OCCCCCCCCCCCC)C1c1ccccc1", "SYSTEM_NAME": "NIH3T3 (mouse embryonic fibroblast)", "log10 of IC50": 1.67}
{"COMPOUND": "O=C(OCCCCCCCCCCCC(F)(F)F)C1=C(C[n+]2ccccc2)NC(C[n+]2ccccc2)=C(C(=O)OCCCCCCCCCCCC(F)(F)F)C1c1ccccc1.[O-][Cl+3]([O-])([O-])[O-].[O-][Cl+3]([O-])([O-])[O-]", "SYSTEM_NAME": "NIH3T3 (mouse embryonic fibroblast)", "log10 of IC50": 1.20}
{"COMPOUND": "CCCCCCCCCCCCOC(=O)C1=C(C[N+](C)(C)CCCCCCCCCCCC)NC(C[N+](C)(C)CCCCCCCCCCCC)=C(C(=O)OCCCCCCCCCCCC)C1c1ccccc1.[O-][Cl+3]([O-])([O-])[O-].[O-][Cl+3]([O-])([O-])[O-]", "SYSTEM_NAME": "NIH3T3 (mouse embryonic fibroblast)", "log10 of IC50": 1.28}
{"COMPOUND": "CCCCCCCCCCCCOC(=O)C1=C(C[n+]2ccccc2)NC(C[n+]2ccccc2)=C(C(=O)OCCCCC(F)(F)C(F)(F)C(F)(F)C(F)(F)C(F)(F)C(F)(F)C(F)(F)C(F)(F)F)C1c1ccccc1 (stereo not shown)", "SYSTEM_NAME": "NIH3T3 (mouse embryonic fibroblast)", "log10 of IC50": 2.68}
{"COMPOUND": "CCCCCCCCCCCCOC(=O)C1=C(C[N+](C)(C)C2CCCCC2)NC(C[N+](C)(C)C2CCCCC2)=C(C(=O)OCCCCCCCCCCCC)C1c1ccccc1.[O-][Cl+3]([O-])([O-])[O-].[O-][Cl+3]([O-])([O-])[O-]", "SYSTEM_NAME": "NIH3T3 (mouse embryonic fibroblast)", "log10 of IC50": 1.77}
